Data credit: PubChem BioAssay (NCATS)

- Test system: HIV-1 nucleocapsid protein NCp7 (binding to TG oligonucleotide)
- PROTOCOL_DETAILS: HIV Nucleocapsid (AID 346);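 also: potency is read from the fitted curve at half-maximal effect; potency is for inhibitors that block NC binding and lower polarization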
- CONDITION_DESCRIPTION: HIV-1 NC / fluorescein-TGTGTGTG probe, fluorescence polarization
Active and inactive are the calls of the source. No rule for the calls is given here.
MEASUREMENT_LABEL: Potency

Sample records with Potency:
{"columns": ["SAMPLE_SMILES", "SYSTEM_TESTED", "ASSAY_VALUE"],
 "data": [
  ["COc1cccc(-c2nccc(NCc3cnc(C)cn3)n2)c1", "HIV-1 nucleocapsid protein NCp7 (binding to TG oligonucleotide)", "> 20 µM (inactive)"],
  ["COc1ccc(-n2c(=O)c(CCc3ccccc3)nc3cnc(N4CCN(C)CC4)nc32)cc1", "HIV-1 nucleocapsid protein NCp7 (binding to TG oligonucleotide)", "> 20 µM (inactive)"],
  ["CN(C)c1ccc(-c2ccc3ncnc(NCc4ccccc4)c3c2)cc1", "HIV-1 nucleocapsid protein NCp7 (binding to TG oligonucleotide)", "> 20 µM (inactive)"],
  ["CCNc1ncc2ncc(=O)n(Cc3cccc(OC)c3)c2n1", "HIV-1 nucleocapsid protein NCp7 (binding to TG oligonucleotide)", "> 20 µM (inactive)"],
  ["O=C(c1cnccn1)N1CCC2(CCCN(c3ccc(-c4ccccc4)cc3)C2)CC1", "HIV-1 nucleocapsid protein NCp7 (binding to TG oligonucleotide)", "> 20 µM (inactive)"]
]}

Potency reading for COCC(=O)N1CCC2(CCCN(C(=O)Nc3cccc(F)c3)C2)CC1 : > 20 µM (inactive)

Per the record, c1nc(N2CCOCC2)c2cc(-c3ccoc3)ccc2n1 has Potency of > 20 µM (inactive)

Recorded result, Cc1noc(C)c1-c1nc(NC2CC2)c2ccccc2n1 , Potency: > 20 µM (inactive)

----------
- SYSTEM_TESTED: Cytochrome P450 3A4 (Homo sapiens)
- PROTOCOL_DETAILS: qHTS Assay for Inhibitors and Substrates of Cytochrome P450 3A4 (AID 884); also: % is scaled to controls: 0 for no effect and ±100 for the full control effect; nearly all actives have a fitted effect of over 50% in size
- CONDITION_DESCRIPTION: recombinant CYP3A4, Luciferin-PPXE luminescence; series mostly up to 57.1 µM
Inconclusive results are not listed. The source made the active and inactive calls. The call rests on the fitted dose curve; in most records, active means well fitted inhibition curve with a large enough effect; inconclusive means small, poorly fitted or top-dose-only effect; inactive means no such curve, though single readings can be large or run the other way.
# valid calls are label 1 for active, label 0 for inactive; nothing else

Here are 2 compounds together with their reported answers.
{"columns": ["COMPOUND", "SYSTEM_TESTED", "LABEL"],
 "data": [
  ["CN1CSC(=S)N(C)C1", "Cytochrome P450 3A4 (Homo sapiens)", "label 0"],
  ["c1ccc(NNc2ccccc2)cc1", "Cytochrome P450 3A4 (Homo sapiens)", "label 0"]
]}

Data request: What outcome does the record of this test show for Oc1cccc(Cl)c1 ?
Data returned: label 0

Data request: Would you mind telling me which call this test gave Brc1ccc(Oc2ccc(Br)cc2Br)c(Br)c1 ?
Data returned: label 0

----------
- SYSTEM_TESTED: Mitogen-activated protein kinase 10 (Mus musculus)
- PROTOCOL_DETAILS: JNK3 AlphaScreen Assay (AID 530);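 also: kinase came from lysate of stimulated human HepG2 cells; signal reports phosphorylation of biotinylated GST-cJun 1-79 at Ser73 with 10 µM ATP; % is scaled to controls: 0 for no effect and ±100 for the full control effect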
- CONDITION_DESCRIPTION: JNK3 lysate, c-Jun phosphorylation; series mostly up to 57.1 µM
Results filed as inconclusive are left out. The source made the active and inactive calls. Calls follow the shape of the dose curve; as a rule, active = well fitted curve in either direction with a large enough effect (not every such curve was filed as active); inconclusive = small, poorly fitted or top-dose-only effect, or another doubt; inactive = flat fitted curve, though single readings scatter.
MEASUREMENT_LABEL: activity change, negative = inhibition

Observe how each entry below is paired with its result.
{"columns": ["COMPOUND", "SYSTEM_TESTED", "activity change, negative = inhibition"],
 "data": [
  ["CCCCC(CC)COC(=O)c1ccc(C(=O)OCC(CC)CCCC)c(C(=O)OCC(CC)CCCC)c1 (configuration not stated)", "Mitogen-activated protein kinase 10 (Mus musculus)", "inactive"],
  ["c1ccc(NNc2ccccc2)cc1", "Mitogen-activated protein kinase 10 (Mus musculus)", "inactive"],
  ["O=C(O)c1cc[c]([Hg][S]c2ncnc3nc[nH]c23)cc1", "Mitogen-activated protein kinase 10 (Mus musculus)", "3.39% [at 11.4 µM] (inactive)"],
  ["N[C@@H](Cc1c[nH]c2cc([N+](=O)[O-])ccc12)C(=O)O", "Mitogen-activated protein kinase 10 (Mus musculus)", "4.66% [at 11.4 µM] (inactive)"],
  ["C/C=C/C=O", "Mitogen-activated protein kinase 10 (Mus musculus)", "inactive"],
  ["ClCCBr", "Mitogen-activated protein kinase 10 (Mus musculus)", "inactive"]
]}

Now consider a different compound.
For record c1ccc2c(c1)CCNC2 the listed activity change, negative = inhibition is inactive

----------
- SYSTEM_TESTED: Mitogen-activated protein kinase 10 (Mus musculus)
- PROTOCOL_DETAILS: JNK3 AlphaScreen Assay (AID 530);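 also: kinase came from lysate of stimulated human HepG2 cells; signal reports phosphorylation of biotinylated GST-cJun 1-79 at Ser73 with 10 µM ATP; % is scaled to controls: 0 for no effect and ±100 for the full control effect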
- CONDITION_DESCRIPTION: JNK3 lysate, c-Jun phosphorylation; series mostly up to 57.1 µM
- From the text: NIH Chemical Genomics Center [NCGC] NIH Molecular Libraries Screening Centers Network [MLSCN] The c-jun N-terminal kinase (JNK) family are serine/threonine protein kinases that phosphorylate c-jun, a component of the transcription factor protein-1 (AP-1). […] A homogeneous AlphaScreen is developed to measure the activity of JNK3. […] The phosphorylation of a biotinylated c-jun substrate by JNK3 can be detected with an antibody raised against phosphorylated c-jun. […]
Inconclusive results are not listed. The source made the active and inactive calls. Calls come from the whole dose curve; as a rule, active = well fitted curve in either direction with a large enough effect (not every such curve was filed as active); inconclusive = small, poorly fitted or top-dose-only effect, or another doubt; inactive = flat fitted curve, though single readings scatter.
MEASUREMENT_LABEL: activity change, negative = inhibition

{"columns": ["COMPOUND", "MEASUREMENT_LABEL", "ASSAY_VALUE"],
 "data": [
  ["CC(C)Br", "activity change, negative = inhibition", "inactive"],
  ["C[As+](C)(c1ccc(Br)c([N+](=O)[O-])c1)c1ccc(Br)c([N+](=O)[O-])c1.O=[N+]([O-])O", "activity change, negative = inhibition", "-0.633% [at 11.4 µM] (inactive)"],
  ["C=C(C)c1ccccc1 (tested in a mixture with another compound)", "activity change, negative = inhibition", "-9.26% [at 11.4 µM] (inactive)"],
  ["[N-]=[N+]=NCC(=O)c1c[nH]c(=O)[nH]c1=O", "activity change, negative = inhibition", "0.476% [at 11.4 µM] (inactive)"],
  ["CO[C@H]1[C@H](O)[C@H](O[C@@H]2[C@H](Oc3cccc4c(O)c5c(=O)oc6ccc(C)c7c(=O)oc(c34)c5c67)O[C@@H](C)[C@H](O)[C@H]2O)O[C@@H](C)[C@@H]1O", "activity change, negative = inhibition", "1.22% [at 11.4 µM] (inactive)"]
]}

get_value(item= Cc1ccc(NC(=[OH+])c2cc3ccccc3cc2O)c(C)c1.Cc1ccc(NC(=[OH+])c2cc3ccccc3cc2O)c(C)c1.[Ni] , readout=activity change, negative = inhibition) returns 1.02% [at 11.4 µM] (inactive)

So for C=CC(=O)OC , the logged activity change, negative = inhibition turned out to be inactive

Note to self: activity change, negative = inhibition recorded for CCOC(=O)C1OC1(C)c1ccccc1 (configuration not stated) was inactive

Sure, the documented activity change, negative = inhibition for COc1cc(CCN)c(OC)c(OC)c1 is 4.46% [at 11.4 µM] (inactive)

get_value(item= CC(C)(Cl)Cl , readout=activity change, negative = inhibition) returns inactive

Reported activity change, negative = inhibition of Clc1ccc(C(Cl)(Cl)Cl)c(Cl)c1 : inactive

Oc1ccc(Cl)c(Cl)c1 yielded activity change, negative = inhibition of inactive

----------
- PROTOCOL_DETAILS: Cell Viability - SH-SY5Y (AID 544);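 also: cells exposed to compound for 40 hours; 0% = DMSO alone and -100% = 100 µM tamoxifen; nearly all actives have a fitted effect of over 55% in size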
- CONDITION_DESCRIPTION: SH-SY5Y neuroblastoma cell viability; at 92.2 µM (top of the series)
Inconclusive results are not listed.
MEASUREMENT_LABEL: viability change, negative = cytotoxic (%)
Write the value in % as a bare number.

Example entries and their recorded answers appear below.
{"columns": ["SAMPLE_SMILES", "READING_UNIT", "ASSAY_VALUE"],
 "data": [
  ["CN(C)c1ccc(N(C)C)cc1", "%", -98.2],
  ["[C-]1=CC=CC1.[C-]1=CC=CC1.[Cl-].[Cl-].[Ti+4]", "%", -81.6],
  ["O=S(=O)(Cl)c1ccccc1", "%", -100]
]}

In plain terms, C=CC=O has a documented viability change, negative = cytotoxic of -91.6

----------
- PROTOCOL_DETAILS: AP1 Signaling Pathway (AID 357);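 also: ME-180 reporter cells stimulated with EGF at its EC50 level; % is scaled to controls: 0 for no effect and ±100 for the full control effect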
- CONDITION_DESCRIPTION: ME-180 (cervical carcinoma) AP-1-bla reporter, EGF-induced, beta-lactamase ratio, 5 h; at 7.69 µM (top of the series) unless noted
Records with an inconclusive call do not appear. Active and inactive are the calls of the source. The call rests on the fitted dose curve; in most records, active means well fitted curve in either direction with a large enough effect (not every such curve was filed as active); inconclusive means small, poorly fitted or top-dose-only effect, or another doubt; inactive means flat fitted curve, though single readings scatter.
This listing pairs compounds with measured activity change, negative = inhibition.

Known results for compounds:
{"columns": ["COMPOUND", "activity change, negative = inhibition"],
 "data": [
  ["Oc1ccc2c3c1O[C@@H]1c4[nH]c5c(c4C[C@@]4(O)[C@@H](C2)N(CC2CC2)CC[C@]314)C[C@]1(O)[C@@H]2Cc3ccc(O)c4c3[C@@]1(CCN2CC1CC1)[C@H]5O4", "-1.65% [at 38 µM] (inactive)"],
  ["c1csc(CN2CCCC3(CCNCC3)C2)n1", "10.8% (inactive)"]
]}

activity change, negative = inhibition in this record for COc1ccc(C(=O)O[C@H]2CC[C@@]3(C)[C@H]4CC[C@H]5[C@]3(C[C@]3(O)[C@H]6CN7C[C@H](C)CC[C@H]7[C@](C)(O)[C@]6(O)[C@H](O)C[C@]53O)O[C@]24O)cc1OC : 1.14% (inactive)

The compound identified as NC[C@H](O)c1cc(O)c(O)cc1F registered its activity change, negative = inhibition at -2.42% [at 38 µM] (inactive)

For reference, reported activity change, negative = inhibition for CC(=O)OC1=CC2=CC[C@H]3[C@H]4CCC(=O)[C@@]4(C)CC(=O)[C@]3(S)[C@]2(C)CC1 stands at -0.915% (inactive)

Value of measured activity change, negative = inhibition for the entry CC1=NN(c2ccccc2)C(=O)[C@@H]1N=Nc1ccc([As](=O)(O)O)c(O)c1 : 6.32% (inactive)

The value of activity change, negative = inhibition measured for the compound O=S(=O)(O)/C(=C\c1ccccc1)c1ccccc1 (tested in a mixture with another compound) turned out to be 4.77% (inactive)
